# TGT: T1, Human recombinant soluble TWEAK (human, UniProt O43508 99-249)
# T1 sequence: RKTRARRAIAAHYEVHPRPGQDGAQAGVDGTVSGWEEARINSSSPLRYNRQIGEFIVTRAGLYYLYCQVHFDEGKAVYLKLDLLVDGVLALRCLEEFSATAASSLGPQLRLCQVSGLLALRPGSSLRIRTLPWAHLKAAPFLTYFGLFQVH
# METHOD_DESCRIPTION: cell-based or functional assay
MEASURED_ENDPOINT: IL-8 Secretion IC50
Please state the value followed by its unit.

Below: 2 binders and their reported IL-8 Secretion IC50.
BINDER | MEASURED_ENDPOINT | ASSAY_VALUE
TW-305 (antibody, V domains shown, also called Antibody 305; rabbit antibody 305) VH: QEQLVESGGGLVQPGGSLTLSCKASGFDFSTYYMSWVRQAPGKGLEWIGTVYVRQGTTYYASWLNGRFTISSDNAQNTVDLKMNSLTAADTATYFCAKGGYNYDDAFVIWGPGTLVTVSF VL: AIEMTQTPFSVSAAVGGTVTINCQASQNIYSNLAWYQQKPGQPPKLLMYTASYLASGVPSRFKGSGSRTEYTLTISGVQCADAATYYCQTAYYNSRPDTVAFGGGTEVVVK | IL-8 Secretion IC50 | 0.099 µg/mL
TW-304 (antibody, V domains shown, also called Antibody 304; rabbit antibody 304) VH: QSLEESGGDLVKPGASLTLTCKASGFSFSSTYYMCWVRQAPGKGLEWIGCIYVGSSGAPYYASWAKGRFTISKTSSTTVALQMTSLTPADTATYVCTRSVHFGDLWGPGTLVTVSS VL: DVVMTQTPSPVSAAVGGTVTIKCQASQSIGNDLSWYQQKPGQRPKLLIYSVSTLASGVPSRFKGSGSGTEYSLTISDVQCADAATYYCQCIDYGNNYVGNTFGGGTEVVVK | IL-8 Secretion IC50 | 0.109 µg/mL

Let us move to another entry and its IL-8 Secretion IC50.
Lab note: measured IL-8 Secretion IC50 of TW-305chi (antibody, human IgG1, kappa, V domains shown, also called chimeric antibody 305; Antibody 305 (chimeric)) VH: QEQLVESGGGLVQPGGSLTLSCKASGFDFSTYYMSWVRQAPGKGLEWIGTVYVRQGTTYYASWLNGRFTISSDNAQNTVDLKMNSLTAADTATYFCAKGGYNYDDAFVIWGPGTLVTVSF VL: AIEMTQTPFSVSAAVGGTVTINCQASQNIYSNLAWYQQKPGQPPKLLMYTASYLASGVPSRFKGSGSRTEYTLTISGVQCADAATYYCQTAYYNSRPDTVAFGGGTEVVVKR was 0.104 µg/mL

These entries and their values trace back to patent US20120121583A1.
